Kindly state EC50 for each of the entries shown.
Biological target: Trace amine-associated receptor 1 (Homo sapiens, UniProt Q96RJ0)
Sequence (Q96RJ0 whole entry): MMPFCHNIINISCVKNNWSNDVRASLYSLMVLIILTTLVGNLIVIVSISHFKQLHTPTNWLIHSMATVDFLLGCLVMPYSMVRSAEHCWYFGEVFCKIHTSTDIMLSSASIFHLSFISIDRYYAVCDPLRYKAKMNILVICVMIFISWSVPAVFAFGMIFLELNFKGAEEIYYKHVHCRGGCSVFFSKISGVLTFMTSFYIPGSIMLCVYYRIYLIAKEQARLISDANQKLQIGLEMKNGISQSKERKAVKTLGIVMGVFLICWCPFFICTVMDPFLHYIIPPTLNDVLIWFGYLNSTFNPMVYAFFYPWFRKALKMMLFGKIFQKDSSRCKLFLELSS
Test: Fluorescence-based cell-based high throughput dose response assay to identify agonists of the human trace amine associated receptor 1 (TAAR1).
Assay type: functional
The source made the active and inactive calls. No stated cut-off is given here; in the data, active = EC50 of 10 µM or less and inactive = more.

Recorded EC50, per entry:
[
  {
    "compound": "Nc1nc(Nc2cccc(F)c2)nc2ccccc12",
    "result": "0.364 µM (active)"
  },
  {
    "compound": "O=C(NCCc1ccccc1)C(c1ccncc1)N(C(=O)c1csnn1)C1CC1 (centres undefined)",
    "result": "2.11 µM (active)"
  },
  {
    "compound": "Cc1cc(C2=NN=C(NCCc3ccccc3)SC2)c(C)n1CC1CCCO1 (centres undefined)",
    "result": "0.553 µM (active)"
  }
]

Ask: For the compound shown here, "Clc1ccc(OCCNCCc2ccccc2)cc1" , give the reported EC50.
Result: 3.81 µM (active)

Values were extracted from ChEMBL document CHEMBL1201862.
